System: UACC-62 melanoma
Assay: NCI tumour cell line growth inhibition, 48 h
Experimental Readout: GI50

The cases that follow already have their GI50 on record.
> print(dat)
                  compound.structure.string   result
1  O=C(NCCN1CCNCC1)c1ccc(Nc2nc3ccccc3c3occc23)cc1  17.6 µM
2  CC(C)[O-].CC(C)[O-].CN(CCN(C)Cc1cc(F)cc(F)c1[O-])Cc1cc(F)cc(F)c1[O-].[Ti+4]  1.26 µM

# input for lookup
Query: I would be grateful if you could share the reported GI50 for `CC(C)Oc1ccc(C(=O)Cn2ccnc2)cc1-n1c(CN2CCN(C(=O)COc3ccc(Cl)cc3)CC2)nc2ccccc2c1=O` .
Response: 12.8 µM

* * *

System: OVCAR-8 ovarian
Experiment: NCI tumour cell line growth inhibition, 48 h
Reported GI50 values for a set of molecules

Query: Query for OVCAR-8 ovarian: what GI50 does the record show for `N.N.N.N.N.O=S(=O)([O-])S(=O)(=O)[O-].[Co+3]` ?
Response: > 100000 nM

Query: State its GI50 on OVCAR-8 ovarian: `O=C(/C=C/c1cccc(O)c1)c1cccc(-n2cc(-c3ccc4ccccc4c3)[nH]c2=O)c1`
Response: 2330 nM

Query: Value wanted: GI50 (OVCAR-8 ovarian) of entry `CCCCCCCCCCCCCC[n+]1cccc(C(N)=O)c1`
Response: 2120 nM

Query: What reported GI50 corresponds to `C/C1=C\CC[C@@](C)(O)[C@@H]2C[C@H](CC/C(C)=C/CC1)C1(CC1)C(=O)O2` on OVCAR-8 ovarian?
Response: 61500 nM

Query: Could you share what GI50 was measured for `CC(C)[O-].CC(C)[O-].CN(CCN(C)Cc1cc(F)cc(F)c1[O-])Cc1cc(F)cc(F)c1[O-].[Ti+4]` , tested on OVCAR-8 ovarian?
Response: 1090 nM

* * *

# TGI per entry
System: SF-295 CNS
Test: NCI tumour cell line growth inhibition, 48 h

Known TGI results, listed for orientation:
> print(dat)
                                   molecule    result
1  Cc1ccc(C)c(N2C(=O)C(=O)C(c3nc4ccccc4s3)C(=Nc3cccc4c(=O)[nH][nH]c(=O)c34)C2=O)c1 (centres undefined)  > 100 µM
2  CC1=NN(C(=O)c2ccncc2)C(=O)C1N=Nc1ccc(F)cc1 (centres undefined)  > 100 µM
3  Cc1cccc(C)c1N1C(=O)C(=O)C(c2nc3ccccc3s2)C(=Nc2cccc3c(=O)[nH][nH]c(=O)c23)C1=O (centres undefined)  > 100 µM

Okay, next one:
Query: What does the record list as TGI for `O=C1c2ccccc2-c2c1c1ccccc1c(=O)n2CCNCCn1c2c(c3ccccc3c1=O)C(=O)c1ccccc1-2` ?
Response: > 25 µM

* * *

Test system: OVCAR-3 ovarian
Experiment: NCI tumour cell line growth inhibition, 48 h
Experimental Readout: GI50

> print(dat)
                  compound.structure.string    result
1  N.N.N.N.N.O=S(=O)([O-])S(=O)(=O)[O-].[Co+3]  > 100 µM
2  O=C1c2ccccc2-c2c1c1c(NCCCO)nc3ccccc3c1n2Cc1ccccc1   19.8 µM
3  CC(C)Oc1ccc(C(=O)Cn2ccnc2)cc1-n1c(CN2CCN(C(=O)COc3ccc(Cl)cc3)CC2)nc2ccccc2c1=O   2.18 µM

Query: # value lookup — system OVCAR-3 ovarian, readout GI50, item `Clc1ccc2c(c1)N(c1ncnc3ccc(-c4cnc5[nH]ncc5c4)cc13)CC2`
Response: 0.471 µM

Query: Test system OVCAR-3 ovarian; read-out GI50; what value for `COc1ccc(C2=C(N3CCc4ccccc43)C(=O)NC2=O)cc1` ?
Response: > 25 µM

* * *

Each entry below carries its recorded TGI.
Test system: CAKI-1 renal
Assay: NCI tumour cell line growth inhibition, 48 h
Hi! Could you send only the number? It should be in µM, unit omitted.

Field: example entries. Status: answers known.
> print(dat)
                                   molecule  experimental.readout  measured.number
1                                 O=S1CSSC1                   TGI             77.4
2  C=CC(=O)N1C/C(=C\c2ccc(Cl)cc2)C(=O)/C(=C/c2ccc(Cl)cc2)C1                   TGI             1.32
3  C[C@]12C/C(=C/O)C(=O)C(O)=C1CC[C@@H]1C2CC[C@@]2(C)C1CC[C@@H]2O (stereo not given in full)                   TGI             76.6
4  COc1cc(/C=C2\CCC(C)/C(=C\c3cc(OC)c(OC)c(OC)c3)C2=O)cc(OC)c1OC (stereo not given)                   TGI             6.71

Query: Any idea what its TGI is? The molecule is CCCCCCCCCCCCCCCCCCOCC(COCCOCC[N+]1(CCCCCC(=O)[O-])CCCC1)Oc1ncccn1 (stereo not given)
Response: 22.7

Query: Record request: TGI value, item `Cc1c2c(cc[n+]1Cc1ccc(F)cc1)c1ccc(OCc3cccc(F)c3)cc1n2Cc1cccc(F)c1`
Response: 5.55

* * *

Tested on: PC-3 prostate
Test: NCI tumour cell line growth inhibition, 48 h; in the data active = GI50 below about 0.43 µM; inactive = the rest
The categories you may choose from are active, inactive

Query: Recorded test call requested for `COc1cccc(COc2cc(-n3cnc4ccccc43)sc2C(N)=O)c1`
Response: inactive

Query: Outcome logged for `CCOC(=O)N1CCN(CCCCCOc2ccccc2C2CCCCC2)CC1` in this assay:
Response: inactive

Query: What classification did `Cc1cc2c(cc1Cl)S/C(=C/C(=O)O)C(Nc1cccc3nsnc13)=NS2(=O)=O` end up with in this test?
Response: inactive

Query: Given `CCn1c(-c2nonc2N)nc2ccncc21` , state the outcome it received in this test.
Response: inactive

Query: Assay result, entry `COc1cc2nc(-c3ccc(C(F)(F)F)cc3)cc(OCCCN3CCCC3)c2cc1OC` — outcome?
Response: inactive

* * *

Test system: KM12 colon
Assay: NCI tumour cell line growth inhibition, 48 h
Measured TGI of individual entries
Reply numerically in µM, unit not repeated.

Check out these entries, answers already filled in.
> print(dat)
                                   molecule  measured.number
1  CC(C)[O-].CC(C)[O-].CN(CCN(C)Cc1cc(F)cc(F)c1[O-])Cc1cc(F)cc(F)c1[O-].[Ti+4]             2.95
2  COc1cc2nc(-c3ccc(C(F)(F)F)cc3)cc(OCCCN3CCCC3)c2cc1OC             30.1
3  Nc1ccccc1C(=O)C(Br)C(Br)c1ccc2c(c1)OCO2 (stereo not given)             33.8

Attention now shifts to the item below.
Query: Recorded TGI for `CCNCCNc1cc(-c2ccc(C#N)cc2)c(C#N)c2nc3ccccc3n12` with KM12 colon, please?
Response: 12.2

* * *

System: UACC-62 melanoma
Experiment: NCI tumour cell line growth inhibition, 48 h
# TGI per record follows

Consider the following illustrative entries.
> print(dat)
                                   compound    result
1  O=S1(=O)c2cnccc2NC(=NCc2ccccc2)N1c1ccccc1  > 100 µM
2  O=C(O)CN(CC(=O)O)C(C(=O)O)c1ccccc1 (stereo unspecified)  > 100 µM
3  CC(C)Oc1ccc(C(=O)Cn2ccnc2)cc1-n1c(CN2CCN(C(=O)COc3ccc(Cl)cc3)CC2)nc2ccccc2c1=O   28.9 µM

Query: Which value of TGI has been reported for `O=C(NCCN1CCNCC1)c1ccc(Nc2nc3ccccc3c3occc23)cc1` in the records?
Response: 32 µM

Query: I am curious: what TGI value has been reported for CC1=NN(C(=O)c2ccncc2)C(=O)C1N=Nc1ccc(F)cc1 (stereo unspecified) ?
Response: > 100 µM

Query: Would you mind telling me what TGI value was observed for `Nc1ccc(-c2nn3c(COc4ccc(Cl)cc4)nnc3s2)cc1` ?
Response: > 100 µM

* * *

Test system: DMS 114 small cell lung
Assay: NCI tumour cell line growth inhibition, 48 h
Experimental Readout: log10(TGI) (log10 of the value in µM)
The base-10 logarithm of TGI, taken with TGI in µM, is what appears here.

Solved cases (5 shown):
> print(dat)
                                   compound  experimental.readout  measured.number
1  CCCCCCCCCCCC1CC(=O)NCCCN(C)CCCCN(C)CCCN1C (stereo not given)            log10(TGI)             0.50
2  C=C1C2Oc3ccccc3C1N(c1ccccc1)O2 (stereo not given)            log10(TGI)             1.90
3  Nc1ccccc1C(=O)C(Br)C(Br)c1ccc2c(c1)OCO2 (stereo not given)            log10(TGI)             1.60
4  CCOC(=O)C1(Cc2ccc3ccccc3c2)CCCCC(=O)N1 (stereo not given)            log10(TGI)             1.86
5  COc1cc(C2c3cc4c(cc3[C@@H](Nc3ccc5c(c3)OCCO5)C3COC(=O)[C@H]23)OCO4)cc(OC)c1O (stereo not given in full)            log10(TGI)             0.53

Query: What does the record list as log10(TGI) for CC(C)(C)NCC(COc1ccc([N+](=O)[O-])cc1)OP(c1ccccc1)c1ccccc1 (stereo not given) ?
Response: 1.92

Query: # lookup: log10(TGI) of `O=S1CSSC1`
Response: 1.28

Query: Find the recorded log10(TGI) belonging to `Cc1c2ccncc2c(C)c2c1[nH]c1ccc(O)c(OCC(F)(F)F)c12` and report it.
Response: 1.03

Query: Which log10(TGI) is reported for this compound? CCCCCCCCCCCCCCCCCCOCC(COCCOCC[N+]1(CCCCCC(=O)[O-])CCCC1)Oc1ncccn1 (stereo not given)
Response: 0.85
